The reported measurements were obtained from patent US20250296953A1.

Tested on: 60 different human tumor cell lines
Test: cells
Conditions: MDA-MB-468, read-out: LC50
outcome.measure: CC50 (µM)
One number for each entry, in µM.

C[C@]12CCc3sc(Nc4cccc(O)c4)nc3C1=CC[C@@H]1[C@@H]2CC[C@]2(C)C(=O)CC[C@@H]12 | 54.7

-- ask For 60 different human tumor cell lines, give CC50 of the listed molecule: `C[C@]12CC[C@H]3[C@@H](CC=C4c5sc(Nc6ccccc6)nc5CC[C@@]43C)[C@@H]1CC[C@@H]2O`
-- reply 6.66

----------
Tested on: 60 different human tumor cell lines
Assay: NCI Development Therapeutics Program 60 cell line screen, one dose
Type: cell-based
Settings: Colon Cancer, SW-620
The label depends only on Growth Percent: Met if it is at least 40%, Not met if it is smaller.

C[C@]12CCc3sc(Nc4ccc(F)cc4F)nc3C1=CC[C@@H]1[C@@H]2CC[C@]2(C)C(=O)CC[C@@H]12 | Not met

-- ask In plain terms: is recorded Growth Percent at least 40% for `CN(c1ccccc1)c1nc2c(s1)CC[C@@]1(C)C2=CC[C@@H]2[C@@H]1CC[C@]1(C)C(=O)CC[C@@H]21` ?
-- reply Met
